Reference source for all entries: patent US10159685B2

# Test system: bovine vascular smooth muscle cells (bVSMCs)
# Assay type: cell-based
# CONDITION_DETAILS: 1 uM, 7 days, MTT, mean of three experiments
Recorded Cell viability of bVSMCs after seven days (MTT signal, relative to control) values for a group of molecules are listed next.
// return just the number, without any unit appended

Example entries and their recorded answers appear below.
MOLECULE	READOUT_VALUE
CN(C)CC(=O)Nc1ccc2[nH]c(=O)c3ccccc3c2c1.Cl [PJ34]	98.89
COc1ccccc1Oc1c(NS(=O)(=O)c2ccc(C(C)(C)C)cc2)nc(-c2ncccn2)nc1OCCO [bosentan MH, Bosentan monohydrate]	96.12
NC(=O)c1cccc(N)c1 [3-AB, 3-aminobenzamide]	99.58
COc1ccc([C@@H]2Sc3ccccc3N(CCN(C)C)C(=O)[C@@H]2OC(C)=O)cc1 [Diltiazem, diltiazem]	96.07
CC(=O)CCCCn1c(=O)c2c(ncn2C)n(C)c1=O [Pentoxifylline, pentoxifylline]	95.91

Query: Item O=C1CCc2cc(OCCCCc3nnnn3C3CCCCC3)ccc2N1 [cilostazol] has what recorded Cell viability of bVSMCs after seven days (MTT signal, relative to control)?
Reply: 93.93

Query: I would be grateful if you could share the reported Cell viability of bVSMCs after seven days (MTT signal, relative to control) for O=C1NCCc2c(OCCCCN3CCCCC3)cccc21 [DPQ] .
Reply: 101.78
